Recorded measurements of GI50, one per entry
# Tested on: SNB-19
# run.description: NCI tumour cell line growth inhibition, 48 h
Calls of active or inactive are those of the source. No stated cut-off is given here; in the data, active = GI50 up to about 1.1 µM and inactive = higher.
readout: GI50

* O=c1oc2cc(O)ccc2c(O)c1C(c1ccccc1F)c1c(O)c2ccc(O)cc2oc1=O | > 100 µM (inactive)
* O=C1OC(CC(=O)c2ccccc2Cl)C(Cl)=C1Cl (stereo not given) | > 100 µM (inactive)
* CCC(=O)N/S(=N/S(=O)(=O)c1ccccc1)C(Cl)(Cl)Cl (stereo not given) | > 100 µM (inactive)
* O=C1/C(=C/c2ccc(Br)s2)NC(=S)N1c1ccccc1 | 26.9 µM (inactive)
* CC(=O)OC1=CC(n2cc(F)c(=O)[nH]c2=O)OC(C)C1=O (stereo not given) | 61.9 µM (inactive)
* COc1cc2c[n+](C)c3c4ccccc4ccc3c2cc1OC.COc1cc2cnc3c4ccccc4ccc3c2cc1OC | 3.94 µM (inactive)
* NC(=O)c1csc(C2OC(COP(=O)(O)CP(=O)(O)OCC3OC(n4cnc5c(N)ncnc54)C(O)C3O)C(O)C2O)n1 (stereo not given) | > 100 µM (inactive)
* O=C1C2=C(C(=O)c3c(O)ccc(O)c31)[C@@H](O)[C@@H](O)[C@@H](O)C2 | 13.1 µM (inactive)
* COc1ccc(/C=C/C(=O)c2c(-c3ccccc3)nn(C)c(=O)c2N2CC2C)cc1 (stereo not given) | 37.8 µM (inactive)
* O=C1c2ccccc2C(=O)c2cc3c(cc21)C[S+]([O-])C3 | > 100 µM (inactive)

---

# Tested on: SW-620
# run.description: NCI tumour cell line growth inhibition, 48 h
Calls of active or inactive are those of the source. Rule as the data show it: active = GI50 up to about 1.1 µM and inactive = higher.
readout: GI50

* CSCCC(C(=O)O)N(CC1(O)OCC(O)C(O)C1O)N=O (configuration not stated) | > 100 µM (inactive)
* O=[N+]([O-])c1ccc(/C=C(/c2ccc([N+](=O)[O-])o2)S(=O)(=O)c2ccccc2)cc1 | 52 µM (inactive)
* Cc1nc2ccccc2n1Cc1nnc(N)o1 | > 100 µM (inactive)
* Cc1n[nH]c(=O)n1/N=C/c1ccc(F)cc1 | > 100 µM (inactive)
* CC(=O)NC(CCCCNC(=O)N(C)N=O)C(=O)NCc1ccccc1 (configuration not stated) | > 100 µM (inactive)
* CSC1=N/C(=C\c2ccc(C)cc2)C(=O)N1 | > 100 µM (inactive)
* CN(C)C1(N(C)C)Oc2c(c(=O)n(C)c(=O)n2C)C(c2ccccc2)C1(F)F (configuration not stated) | > 100 µM (inactive)
* N#Cc1nc2cc(Cl)ccc2nc1N1CCN(c2ccc([N+](=O)[O-])cc2)CC1 | > 100 µM (inactive)
* C/C(=C/CNc1ncnc2c1ncn2CCC(=O)O)CO | > 100 µM (inactive)
* CN1C(=O)CC(c2cccc(C3CC(=O)N(C)C3=O)n2)C1=O (configuration not stated) | > 100 µM (inactive)
* Cn1ncc2c(NCc3ccccc3)ncnc21 | > 100 µM (inactive)
* COc1ccccc1C(N)c1ccccc1 (configuration not stated) | > 100 µM (inactive)
* CCOC(=O)C(C(=S)SC)c1nn2c(=O)cc(C)nc2s1 (configuration not stated) | 20.3 µM (inactive)
* CCOC(=O)C(Oc1ccc(OC)c2c1C(=O)CCC2)c1ccccc1 (configuration not stated) | > 100 µM (inactive)
* O=c1cc(/N=N\c2ccc(Br)cc2)[nH]c(=S)[nH]1 | 27.2 µM (inactive)
* CCCCC(C)C(OC(=O)CC(CC(=O)O)C(=O)O)C(CC(C)CC(O)CCCCC(O)CC(O)C(C)N)OC(=O)CC(CC(=O)O)C(=O)O (configuration not stated) | > 100 µM (inactive)
* O=c1oc2ccccc2cc1-c1csc(Nc2cc(Cl)cc(Cl)c2)n1 | 11.9 µM (inactive)
* O=C(O)CN(c1ccccc1)S(=O)(=O)c1ccc([N+](=O)[O-])cc1 | > 100 µM (inactive)
* COC(=O)c1cc(C)ccc1C1CN=NC12Cc1c(C)cc(C)cc1C2=O (configuration not stated) | 33.2 µM (inactive)
* Cc1nc2ccc(S(=O)(=O)Nc3ccccc3Cl)cc2c(=O)n1NC(=O)CNc1ccccc1Cl | > 100 µM (inactive)
* CS(=O)(=O)CC(=O)c1ccccc1 | > 100 µM (inactive)
* CC(CC(C)[C@H]1CCC2[C@H]3C(CC(=O)[C@@]21C)[C@@]1(C)CCC(O)C[C@H]1C[C@@H]3O)C(=O)O (some centres not stated) | 87.1 µM (inactive)

---

# Tested on: TK-10
# run.description: NCI tumour cell line growth inhibition, 48 h
The source made the active and inactive calls. Cut-off read from the data, not from the text of the source: active = GI50 up to about 1.1 µM and inactive = higher.
Recorded measurements of GI50, one per entry
readout: GI50

- COc1ccc2nc3n(c2c1)C(=O)c1ccccc1-3: > 100 µM (inactive)
- Nc1ccn(CCOC(c2ccccc2)P(=O)(O)O)c(=O)n1 (stereo unspecified): > 100 µM (inactive)
- C=C(C)[C@@]1(O)CCCC[C@@H]1CC(Sc1ccccc1)Sc1ccccc1: 15.5 µM (inactive)
- Cc1c(C(=O)NCCO)[n+]([O-])c2cc(Cl)ccc2[n+]1[O-]: > 100 µM (inactive)
- c1ccc(C2CC(NC3CCCCC3)=Nc3ccccc3N2)cc1 (stereo unspecified): > 100 µM (inactive)
- C#CC(C)(C)OC(=O)C(=[N+]=[N-])C(C)=O: > 10 µM (inactive)
- N#CCC(=O)NC1C2CC3CC(C2)CC1C3 (stereo unspecified): 19.4 µM (inactive)
- O=C1OC(CC(=O)c2ccccc2Cl)C(Cl)=C1Cl (stereo unspecified): > 100 µM (inactive)
- CC1=NN(c2nc(N)nc(-c3cc4ccccc4oc3=N)n2)C(C)(C)C1: 23.4 µM (inactive)
- CCn1c(-c2cc(OC)cc(OC)c2)nc2c1C(=O)c1ccccc1C2=O: > 100 µM (inactive)
- CCOC(=O)C1=C(C)N(c2ccc(Cl)cc2)C2(O)C=CC(=O)C3C(=O)N(c4ccccc4)C(=O)C132 (stereo unspecified): 1.8 µM (inactive)

---

# System: CAKI-1
# run.description: NCI tumour cell line growth inhibition, 48 h
Active and inactive are the calls of the source. Rule as the data show it: active = GI50 up to about 1.1 µM and inactive = higher.
Outcome codes: active, inactive

* CC1=NN(C(=O)c2ccccc2O)C(c2ccccc2Cl)C1C(=O)Nc1ccccc1 (stereo unspecified) | active
* O=[N+]([O-])c1ccc(/C=C(/c2ccc([N+](=O)[O-])o2)S(=O)(=O)c2ccccc2)cc1 | inactive
* COc1ccc2nc3n(c2c1)C(=O)c1ccccc1-3 | inactive
* COC(=O)C(Cc1ccccc1)NP(=O)(O)OCC1OC(n2ccc(N)nc2=O)C(O)C1O (stereo unspecified) | inactive
* CC1NOC(=O)C1/N=N/c1cccc(Cl)c1 (stereo unspecified) | inactive
* O=c1n(-c2ccccc2)c(=O)n2n1C1Cc3ccccc3C12 (stereo unspecified) | inactive
* O=c1[nH]c2cccccc-2c1-c1nc2ccccc2[nH]1 | inactive
* COCCO | inactive
* Cc1ccc2c(c1)Sc1ccc(/N=N/N(C)C)cc1N2C | inactive
* O=C1CC(=O)N(CCc2ccccc2)S(=O)(=O)N1CCc1ccccc1 | inactive
* CCCCCCCCCCCCCCCC[N+](C)(C)Cc1ccc(C[N+](C)(C)CCCCCCCCCCCCCCCC)cc1 | inactive

---

# Tested on: UO-31
# run.description: NCI tumour cell line growth inhibition, 48 h
Activity calls are given as the source filed them. No stated cut-off is given here; in the data, active = GI50 up to about 1.1 µM and inactive = higher.
readout: GI50

* CCCCc1ccc(Nc2nc(Cl)c3c(ncn3COCCOC(C)=O)n2)cc1 | 18.7 µM (inactive)
* Cc1nc2c(n1CC(C)C)C(=O)c1ccccc1C2=O | 26.5 µM (inactive)
* CN(C)c1ccc(/C=C2\C[N+](C)(C)C/C(=C\c3ccc(N(C)C)cc3)C2=O)cc1 | > 100 µM (inactive)
* C=CCN(N=O)C(=O)NCCCC(NC(C)=O)C(=O)NCc1ccccc1 (stereo unspecified) | > 100 µM (inactive)
* C/C(=C1\N=C(c2ccccc2)OC1=O)c1ccccc1 | > 100 µM (inactive)
* O=C1c2ccccc2C(=O)c2cc3c(cc21)C[S+]([O-])C3 | > 100 µM (inactive)
* CCOC(=O)CCC(NC(=O)c1ccc(CNc2nc3cc(N)cc(N)c3nc2-c2ccccc2)cc1)C(=O)OCC (stereo unspecified) | > 100 µM (inactive)
* COC(=O)C1C2CC3C1C3C2C(=O)OC (stereo unspecified) | > 100 µM (inactive)
* CN(/N=C/c1ccc(C(=O)O)cc1)C1=NCCCCN1 | > 100 µM (inactive)
* Oc1c2cc(Cl)cc1COCc1cc(Cl)cc(c1O)COCc1cc(Cl)cc(c1O)COC2 | 32.6 µM (inactive)
* CC12CCCCC1C(=O)C2(Cl)Cl (stereo unspecified) | 2.18 µM (inactive)

---

# Tested on: ACHN
# run.description: NCI tumour cell line growth inhibition, 48 h
The source made the active and inactive calls. Cut-off read from the data, not from the text of the source: active = GI50 up to about 1.1 µM and inactive = higher.
readout: GI50

* CS(=O)(=O)OCCN1CCN(C(=O)c2cccc3c(Nc4ccc(S(=O)(=O)N=C(N)N)cc4)c4ccccc4nc23)CC1 | > 100 µM (inactive)
* O=[N+]([O-])c1ccc(/C=C(/c2ccc([N+](=O)[O-])o2)S(=O)(=O)c2ccccc2)cc1 | > 100 µM (inactive)
* O=C(O)C12C=CC(C1)c1ccccc12 (stereo not given) | > 100 µM (inactive)
* Cc1ccc(S(=O)(=O)[N-]C2C(=O)c3ccccc3C(=O)C2[n+]2cccc(C(N)=O)c2)cc1 (stereo not given) | > 100 µM (inactive)
* c1ccc2c(c1)CCc1c-2n(CCN2CCCCC2)c2ccccc12 | 18.7 µM (inactive)
